tgt: CDK9/Cyclin T1 (Homo sapiens (Human))
Sequence (P50750 whole entry): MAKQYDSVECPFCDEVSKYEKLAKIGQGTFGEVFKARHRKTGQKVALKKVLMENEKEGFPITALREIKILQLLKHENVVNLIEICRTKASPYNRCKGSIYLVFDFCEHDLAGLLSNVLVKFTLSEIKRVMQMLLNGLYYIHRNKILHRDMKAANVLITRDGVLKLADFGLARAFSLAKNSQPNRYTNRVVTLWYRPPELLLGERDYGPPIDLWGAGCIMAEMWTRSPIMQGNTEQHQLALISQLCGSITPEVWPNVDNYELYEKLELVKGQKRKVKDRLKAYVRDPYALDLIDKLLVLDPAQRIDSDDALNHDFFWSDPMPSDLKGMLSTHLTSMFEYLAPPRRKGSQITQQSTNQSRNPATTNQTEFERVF
Sequence (O60563 whole entry partner): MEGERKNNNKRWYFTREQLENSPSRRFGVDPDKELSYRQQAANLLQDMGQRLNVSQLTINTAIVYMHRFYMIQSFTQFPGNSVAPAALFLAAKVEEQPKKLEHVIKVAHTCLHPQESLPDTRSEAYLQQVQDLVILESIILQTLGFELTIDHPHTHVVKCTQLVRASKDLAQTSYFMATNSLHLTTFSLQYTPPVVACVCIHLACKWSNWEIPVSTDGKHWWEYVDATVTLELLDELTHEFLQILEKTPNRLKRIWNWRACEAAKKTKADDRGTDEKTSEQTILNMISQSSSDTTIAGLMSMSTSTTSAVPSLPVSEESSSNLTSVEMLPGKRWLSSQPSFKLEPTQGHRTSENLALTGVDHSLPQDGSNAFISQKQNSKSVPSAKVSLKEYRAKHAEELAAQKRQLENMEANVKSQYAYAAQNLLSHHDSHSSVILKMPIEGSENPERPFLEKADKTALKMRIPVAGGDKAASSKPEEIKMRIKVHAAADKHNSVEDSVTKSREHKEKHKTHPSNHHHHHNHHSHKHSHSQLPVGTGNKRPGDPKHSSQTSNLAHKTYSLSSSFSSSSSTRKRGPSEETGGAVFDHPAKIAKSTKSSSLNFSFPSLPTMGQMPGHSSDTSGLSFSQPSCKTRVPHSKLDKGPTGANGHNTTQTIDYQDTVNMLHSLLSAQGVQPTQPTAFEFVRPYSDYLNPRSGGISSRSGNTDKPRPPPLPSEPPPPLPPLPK
assay: CDK9 enzyme assay (LANCE ULight TR-FRET kinase assay)
measurement setup: 1000 μM ATP, 100 nM ULight MBP, kinase reaction 1 hour
property measured: pIC50
// scale note: pIC50 = -log10(conc_M); give the bare number

Example results:
CN1Cc2c(-c3ccc(C(=O)O)cc3)[nH]c3nccc(c23)-c2cc(F)ccc21	6.82
CN1Cc2c(C3=CCNCC3)[nH]c3nccc(c23)-c2cccnc21	7.20
CN1CCc2c(C3=CCNCC3)[nH]c3nccc(c23)-c2cc(F)ccc21	7.59

# query: pIC50 | item CN1Cc2c(C3=CCN(CC(=O)N(C)C4CC(O)C4)CC3(C)C)[nH]c3nccc(c23)-c2cc(F)ccc21 (stereo not shown) | system: CDK9/Cyclin T1 (Homo sapiens (Human)) 5.92

# query: pIC50 | item `CN1Cc2c(C3=CCCN(CC(=O)O)C3)[nH]c3nccc(c23)-c2cc(F)ccc21` | system: CDK9/Cyclin T1 (Homo sapiens (Human)) 6.62

# query: pIC50 | item CN1Cc2c(C3=CC4CNCC4C3)[nH]c3nccc(c23)-c2cc(F)ccc21 (stereo not shown) | system: CDK9/Cyclin T1 (Homo sapiens (Human)) 7.06

# query: pIC50 | item CN1Cc2c(C3=CCC(N4CCC[C@H]4C(=O)O)CC3)[nH]c3nccc(c23)-c2cc(F)ccc21 (stereo partly shown) | system: CDK9/Cyclin T1 (Homo sapiens (Human)) 6.80

# query: pIC50 | item `CN1Cc2c(C3=CCN[C@@H](CO)C3)[nH]c3nccc(c23)-c2cc(F)ccc21` | system: CDK9/Cyclin T1 (Homo sapiens (Human)) 7.52

# query: pIC50 | item `CN1Cc2c(-c3ccc(S(C)(=O)=O)cc3)[nH]c3nccc(c23)-c2cc(F)ccc21` | system: CDK9/Cyclin T1 (Homo sapiens (Human)) 7.18

# query: pIC50 | item CN(CC(O)CO)C(=O)CN1CC=C(c2[nH]c3ncc(F)c4c3c2CN(C)c2ccc(F)cc2-4)CC1 (stereo not shown) | system: CDK9/Cyclin T1 (Homo sapiens (Human)) 7.35
